Each record here notes measured Disease Control (%) SEPTTR-184 3DC.
Tested on: Zymoseptoria tritici (SEPTTR-184)
experiment: Cyp51 dsRNA tile (fragment) foliar application bioassay (Example 6)
Assay type: in vivo
test.parameters: 3 days curative; rate 200 ppm; average of 2 trials
Unit % implied. Number only.

MgCyp51-T12: dsRNA tile of Zymoseptoria tritici Cyp51, 138 bp, location 1377-1514 (nucleic acid, listed as Zymoseptoria tritici) TGGCTACGGCCTGGTAAGCAAGGGCGCGGCGTCGCCATACTTACCCTTTGGTGCGGGACGACACAGATGTATCGGCGAGCAATTCGCGTACGTGCAATTGCAGACCATTACAGCGACGATGGTTCGCGATTTCAAGTT = 71

Here is the next item to consider.
# input Item MgCyp51-T7: dsRNA tile of Zymoseptoria tritici Cyp51, 111 bp, location 1490-1600 (nucleic acid, listed as Zymoseptoria tritici, long dsRNA tile, purified, chemistry not given here) CGACGATGGTTCGCGATTTCAAGTTTTACAATGTGGATGGCAGCGACAACGTGGTGGGTACGGATTACAGCAGTTTGTTCAGCCGGCCGCTGTCGCCGGCAGTAGTAAAGT has what recorded Disease Control (%) SEPTTR-184 3DC?
# output 72
